assay: Stability of multivitamin soft capsules in container with channel former and absorbent embedded in the inside walls, 30° C./65% RH; type: physicochemical; details: Multivitamin soft capsule batch GD 06 0045, Start
experimental_endpoint: amount of active compound present (mg/capsule)

Observe how each entry below is paired with its result.
CC1=C(/C=C/C(C)=C/C=C/C(C)=C/C=C/C=C(C)/C=C/C=C(C)/C=C/C2=C(C)CCCC2(C)C)C(C)(C)CCC1 [β-Carotene] | 2.3
Cc1cc2nc3c(=O)[nH]c(=O)nc-3n(C[C@H](O)[C@H](O)[C@H](O)CO)c2cc1C [Riboflavin] | 2.09
Cc1ncc(CO)c(CO)c1O.Cl [Pyridoxine*HCL] | 3.60
CC(C)(CO)[C@@H](O)C(=O)NCCC(=O)[O-].CC(C)(CO)[C@@H](O)C(=O)NCCC(=O)[O-].[Ca+2] [Calcium panthotenate] | 15.6

[a] NC(=O)c1cccnc1 [Nicotinamide]
[b] Nc1nc2ncc(CNc3ccc(C(=O)N[C@@H](CCC(=O)O)C(=O)O)cc3)nc2c(=O)[nH]1 [Folic acid]
Looking only at measured amount of active compound present, which entry is lower, a or b ? Returns: label corresponding to the selected item.
b

[I] O=C1O[C@H]([C@@H](O)CO)C(O)=C1O [Ascorbic acid]
[II] CC(=O)Oc1c(C)c(C)c2c(c1C)CCC(C)(CCC[C@H](C)CCC[C@H](C)CCCC(C)C)O2 (stereo partly drawn) [Tocopherol acetate]
Task for the reader: decide whether I or II has the larger amount of active compound present. Returns: label corresponding to the selected item.
I
